Each item that follows carries a reported TRF signal for 0.6 ug/mL Fab.
target: trypsin; experiment: TRF ELISA, Fab on biotinylated trypsin

{"Binder": "KB_A07 Fab (Fab, V domains shown) VH: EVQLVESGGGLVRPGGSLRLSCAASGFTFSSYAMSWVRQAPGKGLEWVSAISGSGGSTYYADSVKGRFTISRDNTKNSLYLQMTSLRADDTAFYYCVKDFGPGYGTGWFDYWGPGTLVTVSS VL: YLNWYQQKPGKAPKLLIYAAGVCPRILMRCKQDSDCLAGCVCGPNGFCGSRSGVPSRFSGSGSGTDFTLTISSLQPEDFATYYCQQGASPPYTFGQGTKVEIKR", "TRF signal for 0.6 ug/mL Fab": 108000}
{"Binder": "KB_B01 Fab (Fab, V domains shown) VH: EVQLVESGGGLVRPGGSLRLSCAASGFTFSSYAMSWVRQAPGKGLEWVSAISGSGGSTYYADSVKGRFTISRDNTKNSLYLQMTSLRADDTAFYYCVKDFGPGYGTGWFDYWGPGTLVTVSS VL: AVNWYQQLPGKAPKLLIYAAAGCPRILMRCKQDSDCLAGCVCGPNGFCGTRSGVSDRFSGSKSGTSASLAISGLRSEDEADYYCAAWDDSLRAYVFGTGTKLTVLG", "TRF signal for 0.6 ug/mL Fab": 54800}
{"Binder": "KB_A01 Fab (Fab, V domains shown) VH: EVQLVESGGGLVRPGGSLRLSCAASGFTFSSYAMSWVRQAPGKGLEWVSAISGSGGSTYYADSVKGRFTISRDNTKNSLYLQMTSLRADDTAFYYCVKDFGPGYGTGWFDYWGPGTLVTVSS VL: YLNWYQQKPGKAPKLLIYAAEVCPRILMRCKQDSDCLAGCVCGPNGFCGGTSGVPSRFSGSRSGTEFTLTISSLQPEDFATYYCQKVDDYPLTFGGGTKVEIKR", "TRF signal for 0.6 ug/mL Fab": 2390}
{"Binder": "KB_C08 Fab (Fab, V domains shown) VH: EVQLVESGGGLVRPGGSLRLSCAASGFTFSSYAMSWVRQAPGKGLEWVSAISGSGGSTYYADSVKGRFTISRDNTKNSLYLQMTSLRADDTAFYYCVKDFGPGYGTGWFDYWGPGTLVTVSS VL: AVNWYQQLPGKAPKLLIYAAAVCPRILMRCKQDSDCLAGCVCGPNGFCGTRSGIPERFSGSKSGTSAFLAISGLRSEDEADYYCAAWDDSLSGVVFGGGTKLTVLG", "TRF signal for 0.6 ug/mL Fab": 51100}
{"Binder": "KB_B02 Fab (Fab, V domains shown) VH: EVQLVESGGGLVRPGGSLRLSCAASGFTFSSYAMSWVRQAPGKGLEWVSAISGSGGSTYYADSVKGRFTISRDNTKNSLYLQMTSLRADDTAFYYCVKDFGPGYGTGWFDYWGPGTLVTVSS VL: AVNWYQQLPGKAPKLLIYAAVGCPRILMRCKQDSDCLAGCVCGPNGFCGTGSGIPERFSGSKSGNTASLTISGLQAEDEGDYYCAAWDDSLSGPVFGGGTKLTVLG", "TRF signal for 0.6 ug/mL Fab": 2340}
{"Binder": "KB_C07 Fab (Fab, V domains shown) VH: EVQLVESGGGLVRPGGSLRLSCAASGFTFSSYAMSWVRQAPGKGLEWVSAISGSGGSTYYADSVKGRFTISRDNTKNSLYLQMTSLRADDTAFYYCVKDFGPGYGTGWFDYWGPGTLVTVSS VL: AVNWYQQLPGKAPKLLIYAAVGCPRILMRCKQDSDCLAGCVCGPNGFCGSASGVSDRFSGSKSGTSASLAISGLRSEDEADYYCASWDDSLRGYVFGTGTKVTVLG", "TRF signal for 0.6 ug/mL Fab": 153000}
{"Binder": "KB_A09 Fab (Fab, V domains shown) VH: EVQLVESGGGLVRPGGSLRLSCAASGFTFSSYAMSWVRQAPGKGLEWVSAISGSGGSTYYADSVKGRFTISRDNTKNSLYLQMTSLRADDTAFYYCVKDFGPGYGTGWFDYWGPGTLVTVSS VL: AVNWYQQLPGKAPKLLIYAAERCPRILMRCKQDSDCLAGCVCGPNGFCGTPSGVPDRFSGSIDTFSNSASLTISGLKTEDEADYYCQSYDSSHHWVFGGGTKLTVLG", "TRF signal for 0.6 ug/mL Fab": 21000}
